// reported Kd for each item listed
# Measured on: fibroblast growth factor receptor 3 (FGFR3) (UniProt P22607)
# Experimental details: FACS
Reply numerically in nM, unit not repeated.

Binder | Units of measure | Kd
PRO-002 (Fab, V domains shown) VH: QVQLVQSGAEVKKPGASVKVSCKASGYTFTSYYMHWVRQAPGQGLEWMGWINPNSGGTNYAQKFQGRVTMTRDTSISTAYMELSSLRSEDTAVYYCARDFLGYEFDYWGQGTLVTVSS VL: DIELTQPPSVSVAPGQTARISCSGDALGDKYASWYQQKPGQAPVLVIYDDSDRPSGIPERFSGSNSGNTATLTISGTQAEDEADYYCQSYDYSADYVFGGGTKLTVLG | nM | 43
PRO-026 (Fab, V domains shown) VH: QVQLVQSGAEVKKPGASVKVSCKASGYTFTSYYMHWVRQAPGQGLEWMGWINPNSGGTNYAQKFQGRVTMTRDTSISTAYMELSSLRSEDTAVYYCARGYWYAYFTYINYGYFDNWGQGTLVTVSS VL: DIALTQPASVSGSPGQSITISCTGTSSDVGGYNYVSWYQQHPGKAPKLMIYDVSNRPSGVSNRFSGSKSGNTASLTISGLQAEDEADYYCQSYDNNSDVVFGGGTKLTVLG | nM | 1.4

Alright, here's another binder for you.
Q. Consider the binder PRO-001 (Fab, V domains shown) VH: QVQLQQSGPGLVKPSQTLSLTCAISGDSVSSNSAAWNWIRQSPGRGLEWLGRTYYRSKWYNDYAVSVKSRITINPDTSKNQFSLQLNSVTPEDTAVYYCARSYYPDFDYWGQGTLVTVSS VL: DIELTQPPSVSVAPGQTARISCSGDALGDKYASWYQQKPGQAPVLVIYDDSDRPSGIPERFSGSNSGNTATLTISGTQAEDEADYYCQSYDGPDLWVFGGGTKLTVLG . State its measured Kd.
A. 0.7
